Attribution: ChEMBL document CHEMBL4308868

- assaySystem: Tyrosinase (Agaricus bisporus)
Measured IC50, listed per entry for reference.
parameter: IC50

CCOc1cc(C)c(C(=O)CCC(=O)OCc2ccccc2)cc1C(C)C    > 500 µM
CCOc1cc(C(C)C)ccc1C    > 500 µM
CCOc1cc(C(C)C)c(C(=O)CCC(=O)OC)cc1C    > 500 µM

###

- assaySystem: Tyrosinase (Agaricus bisporus)
- Sequence (O42713 whole entry): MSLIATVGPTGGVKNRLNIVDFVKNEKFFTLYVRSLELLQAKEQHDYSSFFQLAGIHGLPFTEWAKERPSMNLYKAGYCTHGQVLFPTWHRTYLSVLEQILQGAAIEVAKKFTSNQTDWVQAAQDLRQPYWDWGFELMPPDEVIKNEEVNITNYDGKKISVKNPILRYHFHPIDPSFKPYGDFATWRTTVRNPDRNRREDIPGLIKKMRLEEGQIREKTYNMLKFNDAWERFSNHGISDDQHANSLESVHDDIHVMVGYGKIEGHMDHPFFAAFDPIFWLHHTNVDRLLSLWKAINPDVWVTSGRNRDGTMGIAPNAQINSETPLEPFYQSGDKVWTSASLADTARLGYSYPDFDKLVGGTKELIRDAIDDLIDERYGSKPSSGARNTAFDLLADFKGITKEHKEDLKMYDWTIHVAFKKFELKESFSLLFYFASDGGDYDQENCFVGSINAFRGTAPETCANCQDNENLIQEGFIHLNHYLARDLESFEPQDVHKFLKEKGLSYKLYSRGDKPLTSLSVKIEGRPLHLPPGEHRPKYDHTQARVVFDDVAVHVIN
pIC50: −log10 of the molar value.
Measured pIC50, listed per entry for reference.
parameter: pIC50

CCOC(=O)CCC(=O)c1cc(C)c(OCC)cc1C(C)C    < 3.30
CCOc1cc(C(C)C)c(C(=O)CCC(=O)OCc2ccccc2)cc1C    < 3.30
CCOc1cc(C)c(C(=O)CCC(=O)O)cc1C(C)C    < 3.30
